B1: TRAF3IP2 (parent)
chain: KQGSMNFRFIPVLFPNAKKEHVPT

# Variants of: B1
# procedure_summary: protein stability index of a GFP-peptide fusion (GPS, HEK-293T) (PSI 1-6); higher = more stable;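 note: lentivirally expressed fusions sorted by FACS into six bins by GFP to DsRed ratio, PSI derived from sequencing read proportions per bin multiplied by bin number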
# test_parameters: c terminus: a fixed tail appended

variant_spec: M5Q
protein stability index: 2.65
--
variant_spec: N6Y
protein stability index: 2.14
--
variant_spec: K19M
protein stability index: 1.59
--
variant_spec: K18E
protein stability index: 2.15
--
variant_spec: P11R
protein stability index: 2.14
--
variant_spec: H21T
protein stability index: 2.15
--
variant_spec: K19H
protein stability index: 2.34
--
variant_spec: P15I
protein stability index: 2.17
--
variant_spec: P15A
protein stability index: 1.66
--
variant_spec: I10Y
protein stability index: 2.29
--
variant_spec: N16F
protein stability index: 1.63
--
variant_spec: F7K
protein stability index: 3.06
--
variant_spec: E20P
protein stability index: 2.12
--
variant_spec: K18L
protein stability index: 1.61
--
variant_spec: A17T
protein stability index: 2.86
--
variant_spec: L13V
protein stability index: 2.01
--
variant_spec: F9Q
protein stability index: 3.3
--
variant_spec: A17L
protein stability index: 1.89
--
variant_spec: R8N
protein stability index: 2.8
--
variant_spec: V22W
protein stability index: 1.6
--
variant_spec: I10H
protein stability index: 1.67
--
variant_spec: F9Y
protein stability index: 2.5
--
variant_spec: F14M
protein stability index: 2.56
--
variant_spec: G3R
protein stability index: 1.83
--
variant_spec: P15L
protein stability index: 2.43
--
variant_spec: F7N
protein stability index: 2.92
--
variant_spec: I10V
protein stability index: 1.31
--
variant_spec: L13T
protein stability index: 1.86
--
variant_spec: Q2I
protein stability index: 2.82
--
variant_spec: F9K
protein stability index: 3.41
--
variant_spec: K1W
protein stability index: 2.08
--
variant_spec: R8D
protein stability index: 3.3
--
variant_spec: Q2T
protein stability index: 1.84
--
variant_spec: K19C
protein stability index: 1.7
--
variant_spec: S4F
protein stability index: 1.5
--
variant_spec: N6T
protein stability index: 1.96
